Parameter: Dmax at 25 µM. Scope: all listed entries.
# measuredTarget: WIZ (Homo sapiens, UniProt O95785+Q96SW2)
# Construct: expressed in transfected cells
# Sequence (O95785 whole entry): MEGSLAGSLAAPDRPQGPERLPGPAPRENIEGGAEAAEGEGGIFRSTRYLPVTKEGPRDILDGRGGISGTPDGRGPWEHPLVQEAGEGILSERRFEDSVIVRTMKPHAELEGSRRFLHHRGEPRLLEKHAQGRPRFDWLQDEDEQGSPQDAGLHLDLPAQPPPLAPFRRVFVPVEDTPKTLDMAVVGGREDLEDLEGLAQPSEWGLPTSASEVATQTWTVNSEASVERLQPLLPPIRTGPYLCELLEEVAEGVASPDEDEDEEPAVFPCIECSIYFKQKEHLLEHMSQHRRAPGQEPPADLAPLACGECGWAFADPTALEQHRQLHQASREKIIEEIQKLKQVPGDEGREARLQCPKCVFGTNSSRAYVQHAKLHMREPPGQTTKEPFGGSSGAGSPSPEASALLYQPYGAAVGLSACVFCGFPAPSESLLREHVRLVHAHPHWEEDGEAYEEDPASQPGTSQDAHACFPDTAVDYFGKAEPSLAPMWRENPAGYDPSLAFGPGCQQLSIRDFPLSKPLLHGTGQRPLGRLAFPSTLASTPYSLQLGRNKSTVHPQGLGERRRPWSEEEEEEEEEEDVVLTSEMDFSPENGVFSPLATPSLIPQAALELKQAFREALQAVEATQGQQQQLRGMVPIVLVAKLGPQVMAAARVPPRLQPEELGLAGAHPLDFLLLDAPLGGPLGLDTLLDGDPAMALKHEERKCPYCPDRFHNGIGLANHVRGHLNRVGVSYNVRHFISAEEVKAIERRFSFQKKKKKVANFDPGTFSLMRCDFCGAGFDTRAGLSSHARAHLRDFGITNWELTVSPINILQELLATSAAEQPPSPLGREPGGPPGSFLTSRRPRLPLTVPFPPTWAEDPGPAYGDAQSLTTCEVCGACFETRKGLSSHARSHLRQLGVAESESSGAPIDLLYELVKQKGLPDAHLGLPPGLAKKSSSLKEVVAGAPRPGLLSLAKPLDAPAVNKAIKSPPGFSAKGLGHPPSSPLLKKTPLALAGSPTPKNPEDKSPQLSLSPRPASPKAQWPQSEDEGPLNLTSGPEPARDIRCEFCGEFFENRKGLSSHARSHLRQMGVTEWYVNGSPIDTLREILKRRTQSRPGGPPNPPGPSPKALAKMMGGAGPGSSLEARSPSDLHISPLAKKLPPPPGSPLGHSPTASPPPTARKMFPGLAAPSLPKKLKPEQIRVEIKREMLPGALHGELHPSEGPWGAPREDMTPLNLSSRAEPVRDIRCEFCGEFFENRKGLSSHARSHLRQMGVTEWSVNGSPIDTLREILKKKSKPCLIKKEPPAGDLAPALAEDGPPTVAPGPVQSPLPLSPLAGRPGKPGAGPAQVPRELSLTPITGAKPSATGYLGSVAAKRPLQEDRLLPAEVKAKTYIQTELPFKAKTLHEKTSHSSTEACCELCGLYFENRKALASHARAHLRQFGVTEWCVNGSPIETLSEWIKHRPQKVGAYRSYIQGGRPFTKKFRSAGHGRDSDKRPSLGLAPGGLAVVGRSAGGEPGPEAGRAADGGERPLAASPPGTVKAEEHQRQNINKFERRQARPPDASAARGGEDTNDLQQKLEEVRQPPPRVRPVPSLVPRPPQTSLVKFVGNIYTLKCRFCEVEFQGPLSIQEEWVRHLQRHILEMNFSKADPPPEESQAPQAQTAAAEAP
# Sequence (Q96SW2 whole entry): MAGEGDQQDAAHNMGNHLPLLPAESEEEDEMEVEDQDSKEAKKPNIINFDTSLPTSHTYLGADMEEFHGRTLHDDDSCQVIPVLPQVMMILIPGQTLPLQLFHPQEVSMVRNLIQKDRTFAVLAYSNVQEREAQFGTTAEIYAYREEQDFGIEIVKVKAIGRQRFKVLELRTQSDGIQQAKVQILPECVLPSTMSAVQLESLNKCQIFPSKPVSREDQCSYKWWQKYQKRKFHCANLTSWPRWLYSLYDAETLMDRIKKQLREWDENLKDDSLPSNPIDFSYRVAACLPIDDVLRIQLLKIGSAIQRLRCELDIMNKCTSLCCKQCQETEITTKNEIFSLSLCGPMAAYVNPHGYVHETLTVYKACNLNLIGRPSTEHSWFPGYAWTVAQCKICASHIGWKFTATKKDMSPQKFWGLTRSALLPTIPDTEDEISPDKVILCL
# Sequence (Q16531 whole entry partner): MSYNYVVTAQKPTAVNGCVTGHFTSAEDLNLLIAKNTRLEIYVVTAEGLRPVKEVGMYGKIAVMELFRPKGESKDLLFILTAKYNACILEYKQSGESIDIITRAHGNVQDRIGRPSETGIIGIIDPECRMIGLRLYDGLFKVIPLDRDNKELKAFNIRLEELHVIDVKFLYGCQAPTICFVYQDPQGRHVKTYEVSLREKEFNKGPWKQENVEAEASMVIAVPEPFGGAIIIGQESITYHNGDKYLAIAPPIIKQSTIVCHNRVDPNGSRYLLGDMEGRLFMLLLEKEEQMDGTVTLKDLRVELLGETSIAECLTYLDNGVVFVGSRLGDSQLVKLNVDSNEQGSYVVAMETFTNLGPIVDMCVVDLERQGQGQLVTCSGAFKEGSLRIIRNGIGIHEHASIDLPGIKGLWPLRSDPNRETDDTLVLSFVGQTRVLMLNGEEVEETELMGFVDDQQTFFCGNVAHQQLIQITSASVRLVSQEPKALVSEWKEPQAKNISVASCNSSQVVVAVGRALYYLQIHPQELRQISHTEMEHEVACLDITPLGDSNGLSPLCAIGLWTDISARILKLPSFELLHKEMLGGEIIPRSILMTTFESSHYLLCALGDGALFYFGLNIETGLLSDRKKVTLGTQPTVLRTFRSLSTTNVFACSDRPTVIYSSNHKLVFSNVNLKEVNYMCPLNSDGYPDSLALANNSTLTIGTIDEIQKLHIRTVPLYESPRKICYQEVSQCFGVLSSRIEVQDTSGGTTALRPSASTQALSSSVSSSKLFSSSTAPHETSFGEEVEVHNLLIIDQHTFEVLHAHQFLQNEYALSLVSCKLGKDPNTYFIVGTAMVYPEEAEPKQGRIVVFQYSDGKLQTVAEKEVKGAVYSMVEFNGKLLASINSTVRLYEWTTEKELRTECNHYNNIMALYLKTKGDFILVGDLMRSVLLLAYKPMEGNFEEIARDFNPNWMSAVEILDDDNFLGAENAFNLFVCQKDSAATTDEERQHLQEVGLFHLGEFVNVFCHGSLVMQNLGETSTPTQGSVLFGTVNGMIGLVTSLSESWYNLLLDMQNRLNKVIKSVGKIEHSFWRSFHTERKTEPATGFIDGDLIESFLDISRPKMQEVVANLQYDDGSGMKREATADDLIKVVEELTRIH
# protocolNotes: Quantification of WIZ protein levels in HiBit tag fusion protein assay (WIZ HiBit assay in 293T cells)
# Assay type: cell-based
# measurementContext: HEK-293T, 100 minus Amax at 25 uM; read-out: % degradation of WIZ (100-Amax)
# Method: The HiBit system from Promega was used to develop high-throughput and quantitative assays to measure changes in WIZ protein levels in response to compounds. […] The complementary fragment of Nanoluciferase (known as LgBit, from Promega), was added to the HiBit tag to form an active Nanoluciferase enzyme whose activity can be precisely measured. In this way, the levels of a fusion protein with the HiBit tag can be quantified in cell lysates. […]
Return type: number; implicit unit %.

Example results:
| molecule | u | Dmax at 25 µM |
| --- | --- | --- |
| C[C@@H]1CN(CC(=O)N2CCCCC2)CCN1Cc1ccc2onc(N3CCC(=O)NC3=O)c2c1 | % | 78 |
| C[C@@H]1CN(C(=O)NC2CCCC2)CCN1Cc1ccc2onc(N3CCC(=O)NC3=O)c2c1 | % | 78 |
| O=C1CCN(c2noc3ccc(CN4CCN5CCOC[C@H]5C4)cc23)C(=O)N1 | % | 85 |
| CC(C)[C@H]1CN(Cc2ccc3onc(N4CCC(=O)NC4=O)c3c2)CCN1CC1CCOCC1 | % | 76 |
| CN1CCC(Cc2ccc3onc(N4CCC(=O)NC4=O)c3c2)C1 (centres unmarked) | % | 78 |

query: // lookup Dmax at 25 µM for O=C1CCN(c2noc3ccc(CC4CCN(CC(F)(F)F)CC4)cc23)C(=O)N1
result: 89

query: Record request: Dmax at 25 µM value, item CN1CCC(Cc2ccc3onc(N4CCC(=O)NC4=O)c3c2)CC1
result: 90

query: Field request: Dmax at 25 µM | item: O=C1CCN(c2noc3ccc(CN4[C@@H]5CC[C@H]4CNC5)cc23)C(=O)N1
result: 80
